src = patent US10703756B2

target.under.test: JAK3 enzyme (Homo sapiens, UniProt P52333)
assay.protocol: JAK Caliper Enzyme Assay at 4 μM ATP
Assay type: biochemical
Exercise: state measured IC50 for each of the compounds provided.
Include the unit after the number when you answer.

# C=CC(=O)N1CCC[C@@H]1COc1cnc2[nH]cc(C(=O)N[C@@H](C)COC)c2n1 (single isomer, unassigned) [Example 9] with JAK3 enzyme (Homo sapiens, UniProt P52333): IC50 is 8.86 nM

# C=CC(=O)N1CCC(Oc2cnc3[nH]cc(C(=O)NC(C)C4CC4)c3n2)CC1 (racemic) [Example 220] with JAK3 enzyme (Homo sapiens, UniProt P52333): IC50 is 0.211 nM

# C=CC(=O)N1CC[C@@H](Nc2cnc3[nH]cc(C(=O)NCC4(O)CCC(F)(F)CC4)c3n2)[C@@H](OC)C1 [Example 268] with JAK3 enzyme (Homo sapiens, UniProt P52333): IC50 is 1.43 nM

# C=CC(=O)N1CCC(Nc2cnc3[nH]cc(C(=O)NCCC)c3n2)CC1 [Example 170] with JAK3 enzyme (Homo sapiens, UniProt P52333): IC50 is 0.508 nM

# C=CC(=O)N1CCC(Nc2cnc3[nH]cc(C(=O)NCc4cc(C(C)C)no4)c3n2)CC1 [Example 175] with JAK3 enzyme (Homo sapiens, UniProt P52333): IC50 is 0.426 nM

# C=CC(=O)N1CCC(N(C)c2cnc3[nH]cc(C(=O)N4CCC4)c3n2)CC1 [Example 62] with JAK3 enzyme (Homo sapiens, UniProt P52333): IC50 is 13.5 nM

# C=CC(=O)N1CCC(Nc2cnc3[nH]cc(C(=O)NCc4ccc(F)cc4)c3n2)CC1 [Example 188] with JAK3 enzyme (Homo sapiens, UniProt P52333): IC50 is 0.515 nM

# C=CC(=O)N1CCC(Nc2cnc3[nH]cc(C(=O)NCc4ccc(Cl)cn4)c3n2)CC1 [Example 186] with JAK3 enzyme (Homo sapiens, UniProt P52333): IC50 is 0.485 nM

* * *

target.under.test: UniProt:P52333
Sequence (P52333 1-1124): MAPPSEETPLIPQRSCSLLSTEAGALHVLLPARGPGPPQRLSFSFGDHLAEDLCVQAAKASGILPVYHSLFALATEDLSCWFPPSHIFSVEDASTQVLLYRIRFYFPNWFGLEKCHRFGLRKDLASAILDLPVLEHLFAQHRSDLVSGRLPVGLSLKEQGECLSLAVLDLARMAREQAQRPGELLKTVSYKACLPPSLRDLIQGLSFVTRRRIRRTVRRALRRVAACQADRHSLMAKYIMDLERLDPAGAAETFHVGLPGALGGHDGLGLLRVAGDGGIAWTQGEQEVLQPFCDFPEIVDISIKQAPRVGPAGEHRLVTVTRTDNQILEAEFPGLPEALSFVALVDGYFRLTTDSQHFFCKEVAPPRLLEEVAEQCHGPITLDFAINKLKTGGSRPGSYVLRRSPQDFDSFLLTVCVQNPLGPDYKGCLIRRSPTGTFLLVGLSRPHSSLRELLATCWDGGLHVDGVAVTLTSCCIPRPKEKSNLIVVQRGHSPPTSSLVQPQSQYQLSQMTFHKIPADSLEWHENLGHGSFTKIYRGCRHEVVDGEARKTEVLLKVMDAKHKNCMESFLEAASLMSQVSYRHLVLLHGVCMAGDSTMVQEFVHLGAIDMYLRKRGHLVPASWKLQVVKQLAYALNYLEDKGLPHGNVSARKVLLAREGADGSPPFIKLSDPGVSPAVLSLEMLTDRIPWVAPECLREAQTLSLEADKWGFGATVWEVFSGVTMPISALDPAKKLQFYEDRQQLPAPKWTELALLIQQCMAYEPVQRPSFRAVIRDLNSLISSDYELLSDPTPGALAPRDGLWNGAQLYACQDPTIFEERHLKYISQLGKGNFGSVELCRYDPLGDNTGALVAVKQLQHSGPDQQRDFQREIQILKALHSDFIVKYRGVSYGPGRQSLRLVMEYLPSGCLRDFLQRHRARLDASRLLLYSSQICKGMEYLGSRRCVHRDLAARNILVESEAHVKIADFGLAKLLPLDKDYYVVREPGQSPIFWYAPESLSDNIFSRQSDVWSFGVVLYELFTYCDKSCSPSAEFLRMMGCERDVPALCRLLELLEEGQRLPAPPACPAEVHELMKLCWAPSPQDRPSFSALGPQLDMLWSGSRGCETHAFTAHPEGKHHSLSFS
assay.protocol: JAK Caliper Enzyme Assay at 1 mM ATP
Type: biochemical
The threshold is 200 nM. Values of IC50 beneath it are tagged Condition met; values meeting or exceeding it are tagged Condition not met.

Qu. Hello, is IC50 of the following compound strictly smaller than 200 nM? C=CC(=O)N1CCC[C@H](Oc2cnc3[nH]cc(C(=O)N[C@@H](C)COC)c3n2)C1 [Example 50]
Ans. Condition met

Qu. Hello, is IC50 of the following compound strictly smaller than 200 nM? C=CC(=O)N1C[C@@H](Oc2cnc3[nH]cc(C(=O)N[C@@H](C)COC)c3n2)CC[C@H]1C (racemic) [Example 80]
Ans. Condition met

Qu. Hello, is IC50 of the following compound strictly smaller than 200 nM? C=CC(=O)N1CCN(c2cnc3[nH]cc(C(=O)NC(CC)COC)c3n2)CC1(C)C (racemic) [Example 141]
Ans. Condition met

Qu. Hello, is IC50 of the following compound strictly smaller than 200 nM? C=CC(=O)N1CCC(Nc2cnc3[nH]cc(C(=O)NCCCC(F)(F)F)c3n2)CC1C (racemic) [Example 282]
Ans. Condition not met

Qu. Hello, is IC50 of the following compound strictly smaller than 200 nM? C=CC(=O)N1CCN(c2cnc3[nH]cc(C(=O)NC(CO)CCCC)c3n2)CC1(C)C (racemic) [Example 155]
Ans. Condition not met

Qu. Hello, is IC50 of the following compound strictly smaller than 200 nM? C[C@H]1CC[C@@H](Nc2ncnc3[nH]ccc23)CN1C(=O)C1CO1 (mixture of isomers) [Example 132]
Ans. Condition not met
